- measurement.target: AuroraA-TPX2 (Homo sapiens, UniProt O14965)
- assay.explanation: AuroraA-TPX2 Homogeneous Time Resolved Fluorescent (HTRF) kinase assay
pIC50: −log10 of the molar value.
quantity.kind: pIC50

I = Fc1cc(Nc2nnc(-c3ccc(Cl)cc3)c3ccccc23)ccc1Oc1ccnc2ccccc12
II = COc1cnc2c(Sc3ccc(Nc4nnc(N5CCC(OC)CC5)c5ccccc45)cc3)ccnc2c1
Q) Recorded pIC50 values differ for I and II ; which one is higher? Response format: the label of the selected entry.
A) II
(II: 7.57, I: 7.32)

* * *

- measurement.target: AuroraA-TPX2 (Homo sapiens)
- Sequence (O14965 133-383 limits assumed): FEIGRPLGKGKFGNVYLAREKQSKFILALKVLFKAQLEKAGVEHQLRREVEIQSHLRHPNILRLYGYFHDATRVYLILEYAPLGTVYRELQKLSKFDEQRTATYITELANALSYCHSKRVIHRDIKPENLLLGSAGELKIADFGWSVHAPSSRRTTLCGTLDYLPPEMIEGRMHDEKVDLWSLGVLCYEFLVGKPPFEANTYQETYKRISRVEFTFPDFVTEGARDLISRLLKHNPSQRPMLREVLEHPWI
- Sequence (Q9ULW0 1-43 partner limits assumed): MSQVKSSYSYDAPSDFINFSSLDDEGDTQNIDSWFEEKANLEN
- assay.explanation: AuroraA-TPX2 Homogeneous Time Resolved Fluorescent (HTRF) kinase assay
- protocol.conditions: read-out: AurA_IC50_IP (uM Avg); average
quantity.kind: IC50 (µM)
The response must be a number in µM with no trailing unit.

Q) Value lookup for IC50; key = COc1ccc2c(Cc3ccc(Nc4nnc(-c5ccccc5)c5ccccc45)cc3)ccnc2c1 [Example 53]
A) 0.153
